# System: SNB-19
# test.name: Anticancer activity against human SNB19 cells assessed cell growth at 10 uM after 48 hrs by sulforhodamine B assay relative to control
# Assay type: functional
Activity of 90% or higher: rule met. Under 90%: rule not met.

smiles.entry: CCCCCCCCCCCCCCCCCC[n+]1ccn(C)c1.[Cl-]
answer.label: rule not met

smiles.entry: CCCCCCCCCCCCCCCCCC[n+]1ccn(C)c1.FC(F)(F)C(F)(F)[P-](F)(F)(F)(C(F)(F)C(F)(F)F)C(F)(F)C(F)(F)F
answer.label: rule not met

smiles.entry: CCCCCCCCCCCC[n+]1ccn(C)c1.F[B-](F)(F)F
answer.label: rule not met

smiles.entry: CCCCCCCCCCCCCCCC[n+]1ccn(C)c1.[Cl-]
answer.label: rule not met

smiles.entry: Cn1cc[n+](Cc2ccccc2)c1.F[P-](F)(F)(F)(F)F
answer.label: rule met

# check: Activity of `COCC[n+]1ccn(C)c1.O=S(=O)([N-]S(=O)(=O)C(F)(F)F)C(F)(F)F` is greater than or equal to 90% rule met

----------
Recorded Activity, one value per entry.
# System: BT-549
# test.name: Anticancer activity against human BT549 cells assessed cell growth at 10 uM after 48 hrs by sulforhodamine B assay relative to control
# Type: functional
The figure you give is taken to be in %; do not add the unit.

smiles.entry: CCCCCCCCCCCCCCCCCC[n+]1ccn(C)c1.FC(F)(F)C(F)(F)[P-](F)(F)(F)(C(F)(F)C(F)(F)F)C(F)(F)C(F)(F)F
Activity, %: -56.11

smiles.entry: Cn1cc[n+](Cc2ccccc2)c1.F[P-](F)(F)(F)(F)F
Activity, %: 112.82

smiles.entry: CCCCCCCCCCCCCCCC[n+]1ccn(C)c1.[Cl-]
Activity, %: -65.21

Note: attention shifts to another entry.
Short answer for `CCCCCCCCOS(=O)(=O)[O-].CCCCCCCC[n+]1ccn(C)c1` : Activity was 67.86

----------
# Test system: CAKI-1
# test.name: Anticancer activity against human Caki1 cells assessed cell growth at 10 uM after 48 hrs by sulforhodamine B assay relative to control
# Type: functional
Classify by measured Activity: 1 if it is equal to or exceeds 60%, 0 if it is smaller.

// known answers, use as guide
smiles.entry: CCCCCCCCCCCCCCCCCC[n+]1ccn(C)c1.O=S(=O)([N-]S(=O)(=O)C(F)(F)F)C(F)(F)F
assayed.target: CAKI-1
answer.label: 0

smiles.entry: CCCCCCCC[n+]1ccn(C)c1.[Cl-]
assayed.target: CAKI-1
answer.label: 1

smiles.entry: CCCCCC[n+]1ccn(C)c1.O=S(=O)([N-]S(=O)(=O)C(F)(F)F)C(F)(F)F
assayed.target: CAKI-1
answer.label: 1

smiles.entry: COCC[n+]1ccn(C)c1.O=S(=O)([N-]S(=O)(=O)C(F)(F)F)C(F)(F)F
assayed.target: CAKI-1
answer.label: 1

smiles.entry: CCCCCCCCCCCCCCCCCC[n+]1ccn(C)c1.[Cl-]
assayed.target: CAKI-1
answer.label: 0

Quick check, Activity >= 60%? `CCCCCCCCCCCC[n+]1ccn(C)c1.[Cl-]` 0

# bool: Activity of `CCCCCC[n+]1ccn(C)c1.FC(F)(F)C(F)(F)[P-](F)(F)(F)(C(F)(F)C(F)(F)F)C(F)(F)C(F)(F)F` >= 60% 0

Decide: is the reported value of Activity for `CCCCCCCC[n+]1ccn(C)c1.F[P-](F)(F)(F)(F)F` equal to or greater than 60%? 0

Could you verify whether the entry `CCCCCCCCOS(=O)(=O)[O-].CCCCCCCC[n+]1ccn(C)c1` shows Activity of no less than 60%? 0

hey, is Activity for this one >= 60%? `CCCCCCCCCCCCCCCCCC[n+]1ccn(C)c1.FC(F)(F)C(F)(F)[P-](F)(F)(F)(C(F)(F)C(F)(F)F)C(F)(F)C(F)(F)F` 0

hey, is Activity for this one >= 60%? `CCCCCCCCCCCC[n+]1ccn(C)c1.F[B-](F)(F)F` 0
